# System: Bacteroides thetaiotaomicron
# RUN DESCRIPTION: Antimicrobial activity against Bacteroides thetaiotaomicron by agar dilution method
# Type: functional
MEASURED ENDPOINT: MIC90

> print(dat)
                           structure.string                        target  measured.endpoint  reported.value
1  C[C@@H](O)[C@H]1C(=O)N2C(C(=O)O)=C(S[C@@H]3CN[C@H](C(=O)Nc4cccc(C(=O)O)c4)C3)[C@H](C)[C@H]12  Bacteroides thetaiotaomicron              MIC90         4 µg/mL
2  CO[C@@]1(NC(=O)Cc2cccs2)C(=O)N2C(C(=O)O)=C(COC(N)=O)CS[C@@H]21  Bacteroides thetaiotaomicron              MIC90        64 µg/mL
3  C[C@@H](O)[C@H]1C(=O)N2C(C(=O)O)=C(S[C@@H]3CN[C@H](CNS(N)(=O)=O)C3)[C@H](C)[C@H]12  Bacteroides thetaiotaomicron              MIC90         1 µg/mL

----------
# Tested on: Anaerococcus prevotii
# RUN DESCRIPTION: Antimicrobial activity against Anaerococcus prevotii by agar dilution method
# Type: functional
Listing: MIC50 of selected compounds
MEASURED ENDPOINT: MIC50 (µg/mL)

> print(dat)
                                   compound  reported.value
1  CC(=O)NC[C@H]1CN(c2ccc(N3CCOCC3)c(F)c2)C(=O)O1               1
2                 Cc1ncc([N+](=O)[O-])n1CCO               1
3  C[C@@H](O)[C@H]1C(=O)N2C(C(=O)O)=C(S[C@@H]3CN[C@H](C(=O)N(C)C)C3)[C@H](C)[C@H]12           0.125
4  CCC[C@@H]1C[C@@H](C(=O)N[C@@H]([C@H]2O[C@H](SC)[C@H](O)[C@@H](O)[C@H]2O)[C@H](C)Cl)N(C)C1            0.25
5  C[C@@H](O)[C@H]1C(=O)N2C(C(=O)O)=C(SCCNC=N)C[C@H]12 [IMIPENEM ANHYDROUS]           0.125
6  C[C@@H](O)[C@H]1C(=O)N2C(C(=O)O)=C(S[C@@H]3CN[C@H](CNS(N)(=O)=O)C3)[C@H](C)[C@H]12            0.06
7  COc1c(N2C[C@@H]3CCCN[C@@H]3C2)c(F)cc2c(=O)c(C(=O)O)cn(C3CC3)c12             0.5
8  C[C@@H](O)[C@H]1C(=O)N2C(C(=O)O)=C(S[C@@H]3CN[C@H](C(=O)Nc4cccc(C(=O)O)c4)C3)[C@H](C)[C@H]12           0.125
